# target_or_test_system: small-conductance Ca2+-activated K+ channels (SK channels, subtype 2) (Homo sapiens, UniProt Q9H2S1)
# Construct: expressed in transfected cells; host or cells: HEK293
# assay_explanation: whole-cell patch-clamp of ionic current through SK2 channels in HEK293 cells (SC100)
# Format: cell-based
# setup_conditions: whole-cell patch-clamp, HEK293 cells expressing SK2 channels; concentration that increases the basal current by 100%
readout_name: SC100 (μM)

Cc1cc(C)n(-c2cc(N3CC4CCC(C3)O4)nc(NC3CCC(F)(F)CC3)n2)n1; + (+ means >1 uM)
COC(=O)N1CC(Oc2cc(NC3CCC(F)CC3)nc(-n3ccc(C)n3)n2)C1 (stereo not shown); + (+ means >1 uM)
Cc1ccn(-c2nc(NC3C(C)CCCC3C)cc(C(C)O)n2)n1 (stereo not shown) [IN10881-060-P1]; + (+ means >1 uM)
Cc1cc(NC2CCC(F)(F)CC2)nc(-n2cc3c(n2)CCC3)n1 [IN11216-001-P1]; + (+ means >1 uM)
Cc1csc(-c2ncc(C)c(NC3CCC(F)(F)CC3)n2)n1 [IN11130-076-P1]; + (+ means >1 uM)

The reported SC100 (μM) of the molecule Cc1csc(-c2nc(NC3CCCC(C(F)(F)F)C3)cc(C(C)O)n2)n1 (stereo not shown) [IN10880-085-P1] was + (+ means >1 uM)

The reported SC100 (μM) of the molecule "CC(=O)N1CCC(c2cc(NC3CCC(F)(F)CC3)nc(-n3ccc(C)n3)c2)CC1" was +++ (+++ means <200 nM)

The reported SC100 (μM) of the molecule Cc1cccc(-c2nc(NC3CCC(F)(F)CC3)cc(OCc3cnco3)n2)n1 [IN11130-031-P2] was + (+ means >1 uM)

Hello, the source for this data is patent US10774064B2, in case you need it.
